Target: sphingosine kinase 1 (SK1) (Homo sapiens)
Construct: purified recombinant human SK1
Sequence (Q9NYA1 whole entry): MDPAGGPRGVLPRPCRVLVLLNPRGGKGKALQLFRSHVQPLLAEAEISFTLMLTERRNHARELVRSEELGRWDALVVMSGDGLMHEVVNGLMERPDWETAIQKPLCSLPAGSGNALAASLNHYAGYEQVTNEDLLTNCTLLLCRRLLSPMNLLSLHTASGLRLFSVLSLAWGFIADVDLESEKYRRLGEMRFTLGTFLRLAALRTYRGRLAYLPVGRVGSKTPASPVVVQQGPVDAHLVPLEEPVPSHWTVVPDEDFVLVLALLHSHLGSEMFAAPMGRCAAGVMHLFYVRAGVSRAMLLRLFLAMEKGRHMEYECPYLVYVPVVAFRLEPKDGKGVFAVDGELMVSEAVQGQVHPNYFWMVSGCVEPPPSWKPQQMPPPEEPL
Assay: in vitro radiometric [γ-32P]ATP sphingosine kinase assay with purified enzyme

Compound	IC50
Cc1nn(C)c2nc(NNC(=O)Nc3c(Cl)cncc3Cl)cc(C(C)C)c12 [JTE-013]	25.1 µM

---

Target: dihydroceramide desaturase 1 (Des1) (Homo sapiens)
Construct: Des1-FLAG (C-terminal FLAG), expressed in HEK293T cells; with cytochrome B5 (CYB5)
Sequence (O15121 2-323): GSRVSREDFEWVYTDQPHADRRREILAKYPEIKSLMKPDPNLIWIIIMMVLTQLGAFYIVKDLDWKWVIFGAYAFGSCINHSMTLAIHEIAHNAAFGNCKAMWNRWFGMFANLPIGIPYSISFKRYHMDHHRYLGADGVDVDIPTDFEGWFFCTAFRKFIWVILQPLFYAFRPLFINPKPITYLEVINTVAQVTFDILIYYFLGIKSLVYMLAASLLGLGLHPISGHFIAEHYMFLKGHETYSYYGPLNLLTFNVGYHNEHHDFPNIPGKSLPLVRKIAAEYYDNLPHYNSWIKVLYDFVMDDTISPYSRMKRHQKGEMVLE
Sequence (P00167 2-134 partner): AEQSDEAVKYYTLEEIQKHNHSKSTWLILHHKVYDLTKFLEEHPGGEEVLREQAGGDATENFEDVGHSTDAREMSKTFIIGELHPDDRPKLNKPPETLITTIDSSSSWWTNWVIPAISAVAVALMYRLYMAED
Test: HPLC NBD-C6-dhCer conversion; Ki from Des1-overexpressing HEK293T lysates, competitive inhibition confirmed with purified Des1-FLAG plus CYB5
pKi: −log10 of the molar value.
Quantity measured: pKi

Cc1nn(C)c2nc(NNC(=O)Nc3c(Cl)cncc3Cl)cc(C(C)C)c12 5.04
